- EXPERIMENT SUMMARY: Selectivity for HCV NS3 protease over human neutrophil elastase
OBSERVED PROPERTY: Ratio
Answers are plain numbers.

Parameters: items (list). Returns: Ratio for each item.
1. C=CCNC(=O)C(=O)[C@@H]1CCCCCCCOC[C@H](NC(=O)N[C@H](CN(C)S(=O)(=O)CC)C(C)(C)C)C(=O)N2C[C@H]3[C@@H]([C@H]2C(=O)N1)C3(C)C
2. C=CCNC(=O)C(=O)[C@@H]1CCCCCCCOC[C@H](NC(=O)N[C@H](CN2C(=O)C3CCC(C3)C2=O)C(C)(C)C)C(=O)N2C[C@H]3[C@@H]([C@H]2C(=O)N1)C3(C)C
3. C=CCNC(=O)C(=O)[C@@H]1CCCCCCCOC[C@H](NC(=O)N[C@H](CN2CCCCC2=O)C(C)(C)C)C(=O)N2C[C@H]3[C@@H]([C@H]2C(=O)N1)C3(C)C
4. C=CCNC(=O)C(=O)[C@@H]1CCCCCCCOC[C@H](NC(=O)N[C@H](CN(C)S(=O)(=O)c2cccs2)C(C)(C)C)C(=O)N2C[C@H]3[C@@H]([C@H]2C(=O)N1)C3(C)C

Result:
350
1500
160
100

Source of measurements: ChEMBL document CHEMBL1143391
